Data origin, for the record: patent US11198673B2

Known half-life at 0.1 µM of a selection of compounds
experiment: in vitro; conditions: both, human, microsomes, pH 7.4

Look over these answered cases.
Prompt line: Query: half-life at 0.1 µM; subject: CC(C)C(=O)OCOC(=O)Nc1cc(C[C@H]2C(=O)N(C(=O)N[C@H](C)c3ccc4c(c3)OC(F)(F)O4)[C@@H]2C(=O)O)ccn1
Response line: < 30 min

Prompt line: Quick one: O=C(O)[C@@H]1[C@@H](CCc2cccc(Cl)c2)C(=O)N1C(=O)N[C@@H](C1CCCCC1)C(F)(F)F
Response line: 30 to 60 min

Prompt line: Would you mind doing C[C@@H](NC(=O)N1C(=O)[C@H](Cc2ccnc(N)c2)[C@H]1C(=O)O)c1ccc2c(c1)OC(F)(F)O2 as well?
Response line: > 60 min

// switching to the query compound
Prompt line: // query half-life at 0.1 µM value for entry CCOC(=O)[C@@H]1C(CCc2cccc(Cl)c2)C(=O)N1C(=O)N[C@@H](C1CCCCC1)C(F)(F)F (stereo partly shown)
Response line: 30 to 60 min

* * *

tested on: Trypsin; experiment: Dose response assay for protease inhibitors: trypsin (FXIa fold selectivity); format: biochemical; conditions: fold selectivity for FXIa over trypsin
Excerpt: […]
reported_property: FXIa Fold Selectivity Trypsin

Prompt line: Please report the recorded FXIa Fold Selectivity Trypsin for CNC(=O)N1C(=O)[C@H](Cc2ccnc(N)c2)[C@H]1C(=O)O .
Response line: G (“G” indicates 1-500)

Prompt line: Try C[C@H](NC(=O)N1C(=O)[C@H](Cc2ccnc(N)c2)[C@H]1C(=O)O)c1ccc2c(c1)OC(F)(F)O2 next.
Response line: G (“G” indicates 1-500)

Prompt line: What would you report for CCOC(=O)[C@@H]1[C@@H](Cc2ccnc(NC)c2)C(=O)N1C(=O)N[C@H](C)c1ccc2c(c1)OC(F)(F)O2 ?
Response line: G (“G” indicates 1-500)

* * *

test system: Trypsin; test: Dose response assay for protease inhibitors: trypsin (FXIa fold selectivity); format: biochemical; settings: fold selectivity for FXIa over trypsin
reported_property: FXIa Fold Selectivity Trypsin

Known FXIa Fold Selectivity Trypsin results, listed for orientation:
Prompt line: Bench note: what FXIa Fold Selectivity Trypsin did CCCC(CCC)NC(=O)N1C(=O)[C@H](Cc2ccnc(N)c2)[C@H]1C(=O)O show?
Response line: G (“G” indicates 1-500)

Prompt line: Same for C[C@@H](NC(=O)N1C(=O)[C@H](Cc2ccnc(N)c2)[C@H]1C(=O)O)c1cccc(OC(F)(F)F)c1
Response line: G (“G” indicates 1-500)

Prompt line: Quick one: CNc1cc(C[C@H]2C(=O)N(C(=O)N[C@H](C)c3ccc4c(c3)OC(F)(F)O4)[C@@H]2C(=O)O)ccn1
Response line: I (“I” indicates >1000)

Prompt line: Same read-out for C[C@@H](NC(=O)N1C(=O)[C@H](Cc2ccnc(N)c2)[C@H]1C#N)c1ccccc1 ?
Response line: G (“G” indicates 1-500)

Prompt line: Moving on to the next compound: Nc1cc(C[C@H]2C(=O)N(C(=O)NCc3ccccc3)[C@@H]2C(=O)O)ccn1
Response line: G (“G” indicates 1-500)

Prompt line: Input O=C(O)[C@@H]1[C@@H](CCc2cccc(Cl)c2F)C(=O)N1C(=O)N[C@@H](C1CCCCC1)C(F)(F)F
Response line: I (“I” indicates >1000)

Prompt line: How about this compound: CCOC(=O)[C@@H]1[C@@H](Cc2ccnc(NC(=O)OCOC(=O)C(C)C)c2)C(=O)N1C(=O)N[C@H](C)c1ccc2c(c1)OC(F)(F)O2
Response line: I (“I” indicates >1000)

Prompt line: Another compound: C[C@@H](NC(=O)N1C(=O)[C@H](Cc2ccnc(N)c2)[C@H]1C(=O)O)C1CCCCCCC1
Response line: I (“I” indicates >1000)

Prompt line: Let us now turn to CCOC(=O)[C@@H]1[C@@H](Cc2ccnc(N)c2)C(=O)N1C(=O)N[C@H](C)c1ccc(OC(F)(F)F)cc1
Response line: G (“G” indicates 1-500)

Prompt line: Proceed to Nc1cc(C[C@H]2C(=O)N(C(=O)N[C@@H](C3CCCCC3)C(F)(F)F)[C@@H]2C(=O)O)ccn1
Response line: G (“G” indicates 1-500)

More entries:
Prompt line: Requested read-out: FXIa Fold Selectivity Trypsin. Entry: CCO[C@@H]1[C@@H](Cc2ccnc(N)c2)C(=O)N1C(=O)NC(c1ccccc1)c1ccccc1
Response line: G (“G” indicates 1-500)

Prompt line: Can you check C[C@@H](NC(=O)N1C(=O)[C@H](Cc2ccncc2)[C@H]1C(=O)O)c1ccc2c(c1)OC(F)(F)O2 next?
Response line: G (“G” indicates 1-500)

Prompt line: And O=C(O)[C@@H]1[C@@H](Cc2ccncc2)C(=O)N1C(=O)N[C@@H](C1CCCCC1)C(F)(F)F ?
Response line: G (“G” indicates 1-500)
